Data credit: patent US20080188503A1

target: recombinant human GSK3β (Homo sapiens, UniProt P49841); assay: GSK3β Scintillation Proximity Assay (ATP competition); conditions: recombinant human GSK3β SPA; 1 μM ATP, 1 μM biotinylated peptide substrate; Ki calculated with Km of ATP 20 μM
Sequence (P49841 whole entry): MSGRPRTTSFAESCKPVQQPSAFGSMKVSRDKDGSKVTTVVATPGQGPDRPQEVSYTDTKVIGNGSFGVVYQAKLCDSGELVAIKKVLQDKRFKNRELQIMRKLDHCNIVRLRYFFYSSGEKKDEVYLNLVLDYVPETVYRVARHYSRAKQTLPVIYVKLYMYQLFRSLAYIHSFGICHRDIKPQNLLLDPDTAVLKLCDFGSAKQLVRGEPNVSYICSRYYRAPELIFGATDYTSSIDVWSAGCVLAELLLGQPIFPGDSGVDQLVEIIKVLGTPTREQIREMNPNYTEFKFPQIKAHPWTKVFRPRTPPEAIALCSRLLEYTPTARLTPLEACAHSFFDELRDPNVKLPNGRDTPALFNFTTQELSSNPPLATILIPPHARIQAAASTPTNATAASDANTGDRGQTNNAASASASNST
pKi: −log10 of the molar value.
Returns one of 1 or 0; 1 when pKi is >= 7.

Smiles entry: Cc1ncc(-c2nc(Nc3ccc(CN4CCC(N5CCCC5)CC4)nc3)ncc2F)n1C1CCOCC1
Class assignment: 0
--
Smiles entry: Cc1ncc(-c2nc(Nc3ccncc3)ncc2F)n1C1CCOCC1
Class assignment: 1
--
Smiles entry: COC[C@@H]1CCCN1Cc1ccc(Nc2ncc(F)c(-c3cnc(C)n3C3CCOCC3)n2)cn1
Class assignment: 0
--
Smiles entry: CCN(CCOC)Cc1ccc(Nc2ncc(F)c(-c3cnc(C)n3C3CCOCC3)n2)cn1
Class assignment: 0
--
Smiles entry: Cc1ncc(-c2nc(Nc3ccc(CN4CCN(c5ncccn5)CC4)nc3)ncc2F)n1C1CCOCC1
Class assignment: 1

====

Biological target: recombinant human GSK3β (Homo sapiens, UniProt P49841)
Assay: GSK3β Scintillation Proximity Assay (ATP competition)
Details: recombinant human GSK3β SPA; 1 μM ATP, 1 μM biotinylated peptide substrate; Ki calculated with Km of ATP 20 μM
Description: Determination of ATP Competition in Scintillation Proximity GSK3β Assay. GSK3β Scintillation Proximity Assay. The competition experiments were carried out in duplicate with 10 different concentrations of the inhibitors in clear-bottom microtiter plates (Wallac, Finland). […] After 6 hours the radioactivity was determined in a liquid scintillation counter (1450 MicroBeta Trilux, Wallac). The inhibition curves were analysed by non-linear regression using GraphPad Prism, USA. […]
pKi: −log10 of the molar value.
Listing of recorded pKi by entry.
Assay metric: pKi

Smiles entry: Cc1ncc(-c2nc(Nc3ccc(CN4CCOCC4)nc3)ncc2F)n1C1CCOCC1
Quantitative readout: 7.19

Smiles entry: Cc1ncc(-c2nc(NC3CCN(S(=O)(=O)Cc4ccccc4)CC3)ncc2F)n1C1CCOCC1
Quantitative readout: 7.10

Smiles entry: Cc1ncc(-c2nc(NC3CCN(S(C)(=O)=O)CC3)ncc2F)n1C1CCOCC1
Quantitative readout: 6.92

====

molecular target: recombinant human GSK3β (Homo sapiens, UniProt P49841); construct: purchased Dundee University, UK; assay: GSK3β Scintillation Proximity Assay (ATP competition); assay type: biochemical; conditions: recombinant human GSK3β SPA; 1 μM ATP, 1 μM biotinylated peptide substrate; Ki calculated with Km of ATP 20 μM
pKi: −log10 of the molar value.
Listing of recorded pKi by entry.

Smiles entry: Cc1ncc(-c2nc(NC3CCOCC3)ncc2F)n1C1CCOCC1
pKi: 7.06

Smiles entry: Cc1ncc(-c2nc(NC3CCN(C(=O)C(F)(F)F)CC3)ncc2F)n1C1CCOCC1
pKi: 7.04

Smiles entry: Cc1ncc(-c2nc(NC3CCN(Cc4ccccc4)CC3)ncc2F)n1C1CCOCC1
pKi: 6.85
